Reported self-cleavage values are given for each entry in this list.
B1: Hairpin Ribozyme (parent)
chain: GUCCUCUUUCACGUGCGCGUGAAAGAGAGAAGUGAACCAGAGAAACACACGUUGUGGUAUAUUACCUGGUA

- Variants of: B1
- EXPERIMENT_NOTES: self-cleavage, relative activity (ratio to wild type); higher = more cleavage; co-transcriptional

{"columns": ["ALTERATION", "self-cleavage"],
 "data": [
  ["G15U G21C", 0.829],
  ["U20G A26G", 0.788],
  ["U9G G13U", 0.678],
  ["A30G G40C", 0.131],
  ["A64C A71C", 0.28],
  ["G17A A47C", 0.319],
  ["U52A G54U", 0.64],
  ["C37G A41U", 0.541],
  ["G42U U58C", 0.259],
  ["G27C G29A", 0.138],
  ["C3U A44C", 0.0442],
  ["G27U C38G", 0.17],
  ["A30C A44G", 0.145],
  ["C46U U67G", 0.171],
  ["A22G C65U", 0.395],
  ["C3A G29A", 0.112],
  ["U60A U67G", 0.187],
  ["U14A C46G", 0.108],
  ["U14A A22C", 0.829],
  ["A26G A64U", 0.271],
  ["U7G C50U", 0.371],
  ["A30C G32C", 0.12],
  ["U14A U52A", 1.03],
  ["A35U C65A", 0.625],
  ["A11U G57C", 0.182],
  ["C50A U62G", 0.177],
  ["C12U A41U", 0.928],
  ["U8A G69A", 0.375],
  ["A30C G40C", 0.0198],
  ["A41U A47G", 0.207],
  ["C38U U58C", 0.544],
  ["A22C G68C", 0.247],
  ["A11C A59U", 0.112],
  ["G34U U62C", 1.23],
  ["C4G U58C", 0.403],
  ["A24U U55A", 0.186],
  ["G15U A23U", 0.918],
  ["A11U G34A", 1.13],
  ["G54U A71C", 1.1],
  ["G40A G69U", 0.197],
  ["U14G C50A", 0.307],
  ["A30C G68A", 0.0646],
  ["A36C A61G", 0.148],
  ["C10A C65G", 0.388],
  ["U33C U70A", 0.0822],
  ["G19A A44U", 0.269]
]}
